- experimental.system: T1, full-length untagged human GPNMB expressed on cells (human, UniProt Q14956 23-572)
- T1 sequence: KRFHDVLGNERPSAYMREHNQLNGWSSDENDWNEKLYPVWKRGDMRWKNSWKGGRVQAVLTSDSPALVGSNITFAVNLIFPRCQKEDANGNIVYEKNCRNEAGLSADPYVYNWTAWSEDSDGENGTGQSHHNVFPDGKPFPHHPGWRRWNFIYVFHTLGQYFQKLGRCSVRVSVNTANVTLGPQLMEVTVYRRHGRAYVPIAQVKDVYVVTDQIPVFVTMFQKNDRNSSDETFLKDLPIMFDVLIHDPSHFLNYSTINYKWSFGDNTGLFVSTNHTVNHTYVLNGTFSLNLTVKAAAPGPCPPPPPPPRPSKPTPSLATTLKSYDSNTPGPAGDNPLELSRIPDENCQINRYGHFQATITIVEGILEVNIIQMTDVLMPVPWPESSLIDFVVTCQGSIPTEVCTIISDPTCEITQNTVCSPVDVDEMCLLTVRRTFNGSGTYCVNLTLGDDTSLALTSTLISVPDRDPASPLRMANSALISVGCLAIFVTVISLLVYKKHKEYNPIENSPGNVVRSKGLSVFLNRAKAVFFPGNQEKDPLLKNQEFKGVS
- assay.text: cell-based or functional assay
observable: Inflammasome: Fold Decrease IL-1β (max response at 0.3 µg/ml)

>  <binder>
anti-GPNMB antibody GPN-87 (antibody, V domains shown) VH: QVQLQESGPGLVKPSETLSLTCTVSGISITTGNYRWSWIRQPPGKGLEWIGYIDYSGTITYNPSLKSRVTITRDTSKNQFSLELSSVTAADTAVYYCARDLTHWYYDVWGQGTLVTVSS VL: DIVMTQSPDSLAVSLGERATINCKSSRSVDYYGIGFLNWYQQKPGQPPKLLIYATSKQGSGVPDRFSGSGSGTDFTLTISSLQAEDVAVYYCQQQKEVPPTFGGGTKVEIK

>  <reported>
0.428 fold

$$$$
